experiment: NCI Yeast Anticancer Drug Screen. Data for the rad50 strain (AID 155);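 note: 0% = growth of vehicle-only cultures of the same strain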; settings: S. cerevisiae rad50 strain growth inhibition; at 5.0 µM (retest, dose inferred, filed as 0.5); stronger effect = higher value
About 79,000 compounds went through this panel and 15% of them were active in at least one assay; those are over-represented in the sample as a whole.
Tick class 1 if growth inhibition is 10% or greater. Tick class 0 if growth inhibition is less than 10%.

Some solved cases for reference:
{"molecule": "CCCCCCC(/C=C/c1c(Cl)cccc1Cl)=N\\O", "assigned-label": "class 0"}
{"molecule": "CCOc1nc(N)nc(C)c1N=Nc1ccc(Br)cc1", "assigned-label": "class 0"}
{"molecule": "CN(C(=O)C(Cl)Cl)c1ccc(-c2csc(-c3ccccc3)n2)cc1", "assigned-label": "class 0"}
{"molecule": "Cc1cc(-c2ccccc2)c(C)c(-c2ccccc2)c1-c1ccccc1", "assigned-label": "class 0"}
{"molecule": "Cc1ccc(S(=O)(=O)N/N=C/c2oc(-c3cccc([N+](=O)[O-])c3)c(-c3cccc([N+](=O)[O-])c3)c2[N+](=O)[O-])cc1", "assigned-label": "class 1"}
{"molecule": "N=C(N)Sc1ccc([N+](=O)[O-])cc1Cl", "assigned-label": "class 1"}
{"molecule": "CCC(CC)C(c1ccc(O)cc1)c1ccc(O)cc1", "assigned-label": "class 1"}

Here is another molecule to look at.
Can CCOC(=O)C1=NNC(C(=O)c2ccccc2)C1c1ccccc1 (centres undefined) be said to have growth inhibition at or above 10%?
class 0

Numbers sourced from PubChem BioAssay (NCI).
